Cited source for all entries: ChEMBL document CHEMBL1146375

Quick reference for inhibition zone (IZ) among some compounds
# Test system: Trichophyton benhamiae
# Measurement protocol: Antifungal activity against Trichophyton mentagrophytes MUCC 665 after 48 hrs by disc diffusion method
# Type: functional, Arthroderma benhamiae
Residues, ends and D or L forms follow the SMILES beside them. *: point of attachment. X1 = Cc1cc2nc(-c3ccc(O)c(C(=O)*)c3)[nH]c2cc1C
Quick note: give the figure in mm, leave out the unit.

Qu. Item: COC(=O)[C@@H]1CCCN1C(=O)c1ccc(-c2nc3cc(C)c(C)cc3[nH]2)cc1 Test system: Trichophyton benhamiae Read-out: inhibition zone (IZ) Value: ?
Ans. 13

Qu. Let us now turn to Cc1cc2nc(-c3ccc(C(=O)N[C@@H](Cc4cnc[nH]4)C(=O)N[C@@H](Cc4ccc(O)cc4)C(=O)O)cc3)[nH]c2cc1C
Ans. 16

Continuing:
Qu. Item: Cc1cc2nc(-c3c(I)cc(C(=O)N[C@@H](C)C(=O)N[C@@H](Cc4ccc(O)cc4)C(=O)NCC(=O)O)cc3I)[nH]c2cc1C Test system: Trichophyton benhamiae Read-out: inhibition zone (IZ) Value: ?
Ans. 15

Qu. Let us now turn to COC(=O)[C@H](Cc1cnc[nH]1)NC(=O)CNC(=O)[C@H](Cc1c[nH]c2ccccc12)NC(=O)CNC(=O)c1cc(-c2nc3cc(C)c(C)cc3[nH]2)ccc1O (X1-GWGH-OMe)
Ans. 15

Qu. Let us now turn to COC(=O)CNC(=O)[C@H](Cc1ccc(O)cc1)NC(=O)[C@H](C)NC(=O)c1cc(I)c(-c2nc3cc(C)c(C)cc3[nH]2)c(I)c1
Ans. 13

Qu. Let us now turn to COC(=O)[C@H](Cc1ccc(O)cc1)NC(=O)[C@H](C)NC(=O)[C@H](Cc1c[nH]c2ccccc12)NC(=O)c1cc(-c2nc3cc(C)c(C)cc3[nH]2)ccc1O
Ans. 14
